test system: Escherichia coli TOP10; assay: shrunken log2 fold change of peptide-encoding DNA abundance (4.5 h post-induction vs induction); higher = less antimicrobial activity (less host growth inhibition); conditions: time post-induction: 4.5 h; library: site-saturation at positions 5, 18, 19, 20
Binning scheme for shrunken log2 fold change: class 0 (below -0.1), class 1 (-0.1 to below 0.02), class 2 (0.02 or more)

[[record]]
polymer_sequence = "RRIRDRPPRLPRPRPRPSCAPRP"
group_label = "class 1"

[[record]]
polymer_sequence = "RRIRKRPPRLPRPRPRPDTDPRP"
group_label = "class 2"

[[record]]
polymer_sequence = "RRIRARPPRLPRPRPRPDDYPRP"
group_label = "class 1"

[[record]]
polymer_sequence = "RRIRHRPPRLPRPRPRPSDDPRP"
group_label = "class 1"

[[record]]
polymer_sequence = "RRIRRRPPRLPRPRPRPMCSPRP"
group_label = "class 1"

[[record]]
polymer_sequence = "RRIRCRPPRLPRPRPRPVAPPRP"
group_label = "class 2"

[[record]]
polymer_sequence = "RRIRRRPPRLPRPRPRPDAFPRP"
group_label = "class 2"

[[record]]
polymer_sequence = "RRIRVRPPRLPRPRPRPCDIPRP"
group_label = "class 0"

[[record]]
polymer_sequence = "RRIRNRPPRLPRPRPRPATKPRP"
group_label = "class 1"

[[record]]
polymer_sequence = "RRIRVRPPRLPRPRPRPPIKPRP"
group_label = "class 0"

[[record]]
polymer_sequence = "RRIRDRPPRLPRPRPRPVFLPRP"
group_label = "class 0"

[[record]]
polymer_sequence = "RRIRSRPPRLPRPRPRPSAKPRP"
group_label = "class 2"

[[record]]
polymer_sequence = "RRIRVRPPRLPRPRPRPMWHPRP"
group_label = "class 1"

[[record]]
polymer_sequence = "RRIRIRPPRLPRPRPRPANKPRP"
group_label = "class 0"

[[record]]
polymer_sequence = "RRIRSRPPRLPRPRPRPKWCPRP"
group_label = "class 0"


---

Listed here: items and their measured shrunken log2 fold change.
system: Escherichia coli TOP10; test: shrunken log2 fold change of peptide-encoding DNA abundance (4.5 h post-induction vs induction); higher = less antimicrobial activity (less host growth inhibition); settings: time post-induction: 4.5 h; library: site-saturation at positions 5, 18, 19, 20;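 note: peptides expressed intracellularly from a pBAD plasmid library in pooled LB shake-flask culture, induced with 0.3% L-arabinose, DNA abundance read by NGS, three biological replicates, DESeq2 with apeglm shrinkage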
endpoint name: shrunken log2 fold change

[[record]]
polymer_sequence = "RRIRARPPRLPRPRPRPMKWPRP"
observed = 0.126

[[record]]
polymer_sequence = "RRIRMRPPRLPRPRPRPYLWPRP"
observed = 0.0857

[[record]]
polymer_sequence = "RRIRQRPPRLPRPRPRPPNGPRP"
observed = -0.00787

[[record]]
polymer_sequence = "RRIRMRPPRLPRPRPRPNVGPRP"
observed = -0.0241

[[record]]
polymer_sequence = "RRIRVRPPRLPRPRPRPHQMPRP"
observed = -0.0715

[[record]]
polymer_sequence = "RRIRIRPPRLPRPRPRPNTMPRP"
observed = -0.264

[[record]]
polymer_sequence = "RRIRDRPPRLPRPRPRPLYEPRP"
observed = -0.0254

[[record]]
polymer_sequence = "RRIRIRPPRLPRPRPRPYMEPRP"
observed = -0.677

[[record]]
polymer_sequence = "RRIRPRPPRLPRPRPRPFYKPRP"
observed = -0.25

[[record]]
polymer_sequence = "RRIRERPPRLPRPRPRPVQIPRP"
observed = 0.27

[[record]]
polymer_sequence = "RRIRTRPPRLPRPRPRPSENPRP"
observed = -0.0993

[[record]]
polymer_sequence = "RRIRHRPPRLPRPRPRPATQPRP"
observed = -0.038

[[record]]
polymer_sequence = "RRIRWRPPRLPRPRPRPLTVPRP"
observed = -0.0954

[[record]]
polymer_sequence = "RRIRFRPPRLPRPRPRPYVYPRP"
observed = -0.196

[[record]]
polymer_sequence = "RRIRSRPPRLPRPRPRPHPLPRP"
observed = -0.00402

[[record]]
polymer_sequence = "RRIRSRPPRLPRPRPRPLCQPRP"
observed = -0.135

[[record]]
polymer_sequence = "RRIRNRPPRLPRPRPRPPQFPRP"
observed = 0.334

[[record]]
polymer_sequence = "RRIRLRPPRLPRPRPRPPGIPRP"
observed = -0.383

[[record]]
polymer_sequence = "RRIRIRPPRLPRPRPRPHMFPRP"
observed = -1

[[record]]
polymer_sequence = "RRIRFRPPRLPRPRPRPPFNPRP"
observed = -0.245

[[record]]
polymer_sequence = "RRIRVRPPRLPRPRPRPINFPRP"
observed = -0.458

[[record]]
polymer_sequence = "RRIRTRPPRLPRPRPRPCTWPRP"
observed = -0.0134

[[record]]
polymer_sequence = "RRIRGRPPRLPRPRPRPFWIPRP"
observed = -0.432

[[record]]
polymer_sequence = "RRIRRRPPRLPRPRPRPIWSPRP"
observed = -0.000832

[[record]]
polymer_sequence = "RRIRWRPPRLPRPRPRPTFNPRP"
observed = 0.00157

[[record]]
polymer_sequence = "RRIRNRPPRLPRPRPRPLNVPRP"
observed = -0.0912

[[record]]
polymer_sequence = "RRIRMRPPRLPRPRPRPQELPRP"
observed = 0.0211

[[record]]
polymer_sequence = "RRIRDRPPRLPRPRPRPQITPRP"
observed = -0.0201

[[record]]
polymer_sequence = "RRIRPRPPRLPRPRPRPYFDPRP"
observed = -0.561

[[record]]
polymer_sequence = "RRIRPRPPRLPRPRPRPFYAPRP"
observed = 0.02

[[record]]
polymer_sequence = "RRIRCRPPRLPRPRPRPGLQPRP"
observed = 0.109

[[record]]
polymer_sequence = "RRIRSRPPRLPRPRPRPMTRPRP"
observed = 0.381

